B1: Connector enhancer of kinase suppressor of ras 2, residues 9 to 71; numbered along this chain, Q8WXI2 (parent)
chain: SKWSPSQVVDWMKGLDDCLQQYIKNFEREKISGDQLLRITHQELEDLGVSRIGHQELILEAVD

variants of: B1; assay: abundance fitness (aPCA) (normalised: wild type 0, dead -1); higher = more abundant; growth selection in yeast, the domain comes from the species named; settings: Homo sapiens
Measure name: abundance fitness
Answers are plain numbers.

Required: abundance fitness, one value per variant below.
1. E27C
2. S50F
3. L15C
4. Q42L
5. E56N
6. E60Y

1: -0.406; 2: -0.139; 3: -0.552; 4: -0.378; 5: -0.046; 6: -0.514
